system: BaF3; assay: Antiproliferative activity against mouse BaF3 cells harbouring Bcr-Abl T315I assessed of cell viability at 30 uM incubated for 72 hrs by Celltiter-glo luminescent cell viability assay relative to control; type: functional
parameter-measured: inhibition at 30 µM
Remember to quote the unit after the number.

# smiles-str, inhibition at 30 µM
records = [
    ("CCN(CC)C(=O)c1cncc(-c2cccc(C(=O)N[C@@H](COC(C)(C)C)C(=O)Nc3ccc(Cl)c(C(F)(F)F)c3)c2)c1", "58.4%"),
    ("CCN(CC)C(=O)c1cncc(-c2ccc(C(=O)N[C@@H](CO)C(=O)Nc3ccc(Cl)c(C(F)(F)F)c3)cc2)c1", "-1.59%"),
    ("CC(=O)Nc1ccc(-c2cccc(C(=O)N[C@@H](COC(C)(C)C)C(=O)Nc3ccc(Cl)c(C(F)(F)F)c3)c2)cn1", "77.1%"),
    ("CC(=O)Nc1ccc(-c2cccc(C(=O)N[C@@H](CO)C(=O)Nc3ccc(Cl)c(C(F)(F)F)c3)c2)cn1", "90%"),
]

Read the next record carefully.
May I ask what inhibition at 30 µM has been recorded for Nc1cc(-c2ccc(C(=O)N[C@@H](CO)C(=O)Nc3ccc(Cl)c(C(F)(F)F)c3)cc2)ccn1 ?
-3.39%

###

test system: BaF3; test: Antiproliferative activity against mouse BaF3 cells harbouring Bcr-Abl T315I assessed of cell viability at 30 uM incubated for 72 hrs by Celltiter-glo luminescent cell viability assay relative to control; assay type: functional
# if value of inhibition at 30 µM reaches 70%, tag rule met; if it stays below, tag rule not met

# smiles-str, target-under-test, group-label
data = [
    ("O=C(NC1CC1)c1cncc(-c2cccc(C(=O)N[C@@H](CO)C(=O)Nc3ccc(Cl)c(C(F)(F)F)c3)c2)c1", "BaF3", "rule not met"),
    ("CC(C)(C)OC[C@H](NC(=O)c1ccc(-c2ccnc(NC(=O)C(C)(C)C)c2)cc1)C(=O)Nc1ccc(Cl)c(C(F)(F)F)c1", "BaF3", "rule not met"),
    ("CS(=O)(=O)Nc1ccc(-c2cccc(C(=O)N[C@@H](CO)C(=O)Nc3ccc(Cl)c(C(F)(F)F)c3)c2)cn1", "BaF3", "rule not met"),
]

# bool: inhibition at 30 µM of CC(C)(C)[C@H](NC(=O)c1cccc(-c2ccc(NS(C)(=O)=O)nc2)c1)C(=O)Nc1ccc(Cl)c(C(F)(F)F)c1 >= 70%
rule met

# bool: inhibition at 30 µM of CC(=O)Nc1cc(-c2ccc(C(=O)N[C@@H](CO)C(=O)Nc3ccc(Cl)c(C(F)(F)F)c3)cc2)ccn1 >= 70%
rule not met

# bool: inhibition at 30 µM of CC(C)(C)OC[C@H](NC(=O)c1cccc(-c2ccc(NS(C)(=O)=O)nc2)c1)C(=O)Nc1ccc(Cl)c(C(F)(F)F)c1 >= 70%
rule met

# bool: inhibition at 30 µM of CC(C)(C)C(=O)Nc1ccc(-c2cccc(C(=O)N[C@H](C(=O)Nc3ccc(Cl)c(C(F)(F)F)c3)C(C)(C)C)c2)cn1 >= 70%
rule met

###

tested on: HEK293; assay: Antiproliferative activity against HEK293 cells after 48 hrs by MTT assay; assay type: toxicity, cell-based; parameters: concentration or dose not given beside the values; settings: human, hek293, 48 h
Activity values by entry

Solved cases (5 shown):
# smiles-str, Activity
data = [
    ("CS(=O)(=O)Nc1ccc(-c2cccc(C(=O)N[C@@H](CO)C(=O)Nc3ccc(Cl)c(C(F)(F)F)c3)c2)cn1", "94%"),
    ("CC(C)(C)[C@H](NC(=O)c1ccc(-c2ccnc(NS(C)(=O)=O)c2)cc1)C(=O)Nc1ccc(Cl)c(C(F)(F)F)c1", "81%"),
    ("CC(=O)Nc1cc(-c2ccc(C(=O)N[C@@H](COC(C)(C)C)C(=O)Nc3ccc(Cl)c(C(F)(F)F)c3)cc2)ccn1", "95%"),
    ("CC(C)(C)OC[C@H](NC(=O)c1ccc(-c2ccnc(NS(C)(=O)=O)c2)cc1)C(=O)Nc1ccc(Cl)c(C(F)(F)F)c1", "93%"),
    ("CC(=O)Nc1ccc(-c2cccc(C(=O)N[C@@H](COC(C)(C)C)C(=O)Nc3ccc(Cl)c(C(F)(F)F)c3)c2)cn1", "98%"),
]

Form: Entry = CC(C)(C)OC[C@H](NC(=O)c1cccc(-c2ccc(NC(=O)C3CC3)nc2)c1)C(=O)Nc1ccc(Cl)c(C(F)(F)F)c1 | System = HEK293 | Activity = ____
92%

Form: Entry = CC(=O)Nc1cc(-c2ccc(C(=O)N[C@@H](CO)C(=O)Nc3ccc(Cl)c(C(F)(F)F)c3)cc2)ccn1 | System = HEK293 | Activity = ____
91%

Form: Entry = O=C(NC1CC1)c1cncc(-c2ccc(C(=O)N[C@@H](CO)C(=O)Nc3ccc(Cl)c(C(F)(F)F)c3)cc2)c1 | System = HEK293 | Activity = ____
89%

Form: Entry = CCN(CC)C(=O)c1cncc(-c2cccc(C(=O)N[C@@H](COC(C)(C)C)C(=O)Nc3ccc(Cl)c(C(F)(F)F)c3)c2)c1 | System = HEK293 | Activity = ____
100%

Form: Entry = Cc1ccc(NC(=O)c2ccc(CN3CCN(C)CC3)cc2)cc1Nc1nccc(-c2cccnc2)n1 | System = HEK293 | Activity = ____
87%

Form: Entry = CC(C)(C)OC[C@H](NC(=O)c1cccc(-c2ccc(NS(C)(=O)=O)nc2)c1)C(=O)Nc1ccc(Cl)c(C(F)(F)F)c1 | System = HEK293 | Activity = ____
88%

Form: Entry = Nc1ccc(-c2cccc(C(=O)N[C@@H](CO)C(=O)Nc3ccc(Cl)c(C(F)(F)F)c3)c2)cn1 | System = HEK293 | Activity = ____
93%

Form: Entry = CC(=O)Nc1ccc(-c2cccc(C(=O)N[C@H](C(=O)Nc3ccc(Cl)c(C(F)(F)F)c3)C(C)(C)C)c2)cn1 | System = HEK293 | Activity = ____
86%

Form: Entry = CC(C)(C)C(=O)Nc1ccc(-c2cccc(C(=O)N[C@@H](CO)C(=O)Nc3ccc(Cl)c(C(F)(F)F)c3)c2)cn1 | System = HEK293 | Activity = ____
100%

Form: Entry = CC(C)(C)[C@H](NC(=O)c1cccc(-c2ccc(NS(C)(=O)=O)nc2)c1)C(=O)Nc1ccc(Cl)c(C(F)(F)F)c1 | System = HEK293 | Activity = ____
100%

Form: Entry = CC(C)(C)OC[C@H](NC(=O)c1ccc(-c2cncc(C(=O)NC3CC3)c2)cc1)C(=O)Nc1ccc(Cl)c(C(F)(F)F)c1 | System = HEK293 | Activity = ____
84%

Form: Entry = CC(C)(C)C(=O)Nc1ccc(-c2cccc(C(=O)N[C@H](C(=O)Nc3ccc(Cl)c(C(F)(F)F)c3)C(C)(C)C)c2)cn1 | System = HEK293 | Activity = ____
81%

Form: Entry = CCN(CC)C(=O)c1cncc(-c2ccc(C(=O)N[C@H](C(=O)Nc3ccc(Cl)c(C(F)(F)F)c3)C(C)(C)C)cc2)c1 | System = HEK293 | Activity = ____
97%

Form: Entry = CC(C)(C)[C@H](NC(=O)c1cccc(-c2cncc(C(=O)NC3CC3)c2)c1)C(=O)Nc1ccc(Cl)c(C(F)(F)F)c1 | System = HEK293 | Activity = ____
90%

Form: Entry = CCN(CC)C(=O)c1cncc(-c2cccc(C(=O)N[C@@H](CO)C(=O)Nc3ccc(Cl)c(C(F)(F)F)c3)c2)c1 | System = HEK293 | Activity = ____
84%

Form: Entry = CCN(CC)C(=O)c1cncc(-c2ccc(C(=O)N[C@@H](CO)C(=O)Nc3ccc(Cl)c(C(F)(F)F)c3)cc2)c1 | System = HEK293 | Activity = ____
74%

Form: Entry = CC(C)(C)OC[C@H](NC(=O)c1cccc(-c2ccc(N)nc2)c1)C(=O)Nc1ccc(Cl)c(C(F)(F)F)c1 | System = HEK293 | Activity = ____
96%

Form: Entry = CC(C)(C)C(=O)Nc1cc(-c2ccc(C(=O)N[C@@H](CO)C(=O)Nc3ccc(Cl)c(C(F)(F)F)c3)cc2)ccn1 | System = HEK293 | Activity = ____
87%

Form: Entry = CC(C)(C)OC[C@H](NC(=O)c1cccc(-c2ccc(NC(=O)C(C)(C)C)nc2)c1)C(=O)Nc1ccc(Cl)c(C(F)(F)F)c1 | System = HEK293 | Activity = ____
72%

Form: Entry = CC(=O)Nc1ccc(-c2cccc(C(=O)N[C@@H](CO)C(=O)Nc3ccc(Cl)c(C(F)(F)F)c3)c2)cn1 | System = HEK293 | Activity = ____
85%

Form: Entry = Cc1ccc(C(=O)Nc2ccc(CN3CCN(C)CC3)c(C(F)(F)F)c2)cc1C#Cc1cnc2cccnn12 | System = HEK293 | Activity = ____
55%

Form: Entry = CC(C)(C)[C@H](NC(=O)c1ccc(-c2cncc(C(=O)NC3CC3)c2)cc1)C(=O)Nc1ccc(Cl)c(C(F)(F)F)c1 | System = HEK293 | Activity = ____
91%
